Assay: toxicokinetics experiment III: effect of E. coli on uptake
Assay type: in vivo, Caenorhabditis elegans
Details: whole organism (homogenate of pooled worms), 10 mg/L, exp III, no E. coli, 10 mg/L fluoxetine, 10 h; read-out: k2NF elimination rate constant of norfluoxetine (converted)

molecule	k el
NCCC(Oc1ccc(C(F)(F)F)cc1)c1ccccc1 (stereo not shown)	2.78e-08 s⁻¹

====

Experiment: toxicokinetics experiment I: elimination after 1 h exposure
Type: in vivo, Caenorhabditis elegans
Conditions: whole organism (worm homogenate), 1 h exposure, then clean medium; slow phase after 1 h; no E. coli; read-out: k2slow elimination rate constant (+95% CI) (converted)
Structures can show the parent of a compound that is named as a salt.
recorded metric: k el (s⁻¹)

compound	reading
NCCC(Oc1ccc(C(F)(F)F)cc1)c1ccccc1 (centres unmarked)	2.36e-05
CNCCC(Oc1ccc(C(F)(F)F)cc1)c1ccccc1 (centres unmarked) [fluoxetine, Fluoxetine hydrochloride]	0.000131
